MEASUREMENT TARGET: Protein kinase C zeta type (Homo sapiens) (UniProt Q05513)
Sequence (whole entry): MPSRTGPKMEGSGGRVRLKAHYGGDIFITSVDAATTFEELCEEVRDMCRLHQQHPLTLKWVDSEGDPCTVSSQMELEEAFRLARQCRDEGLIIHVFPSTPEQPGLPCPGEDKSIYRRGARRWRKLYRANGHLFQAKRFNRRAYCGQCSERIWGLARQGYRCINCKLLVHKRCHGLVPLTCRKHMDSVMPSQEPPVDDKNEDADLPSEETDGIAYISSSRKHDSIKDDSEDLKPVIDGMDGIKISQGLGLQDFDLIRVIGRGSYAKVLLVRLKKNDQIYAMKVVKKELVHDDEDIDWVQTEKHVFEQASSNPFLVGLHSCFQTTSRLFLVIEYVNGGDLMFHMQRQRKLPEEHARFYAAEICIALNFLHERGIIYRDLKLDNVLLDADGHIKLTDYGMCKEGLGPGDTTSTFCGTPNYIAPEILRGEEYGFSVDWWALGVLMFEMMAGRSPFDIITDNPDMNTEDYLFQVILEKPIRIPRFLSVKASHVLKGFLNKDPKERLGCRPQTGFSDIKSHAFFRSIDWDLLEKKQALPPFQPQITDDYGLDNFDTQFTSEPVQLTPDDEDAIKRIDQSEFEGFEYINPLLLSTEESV
APPLIED CONDITIONS: at 1 µM

COMPOUND: COc1cccc(-c2cc(=O)c3ccccc3o2)c1N
residual activity [%]: 111

COMPOUND: Cn1nc2c3c(cccc31)C(=O)c1ccccc1-2
residual activity [%]: 102

COMPOUND: COc1cc2ncnc(Nc3ccc(O)c(Br)c3)c2cc1OC
residual activity [%]: 96

COMPOUND: Cc1ccc(NC2=CC(=O)c3sc(C)nc3C2=O)cc1
residual activity [%]: 100

COMPOUND: O=C1Nc2ccccc2/C1=C1/Nc2ccccc2/C1=N\OCCC(O)CO (stereo unspecified)
residual activity [%]: 95

COMPOUND: Cn1cc(/C=C2\C(=O)Nc3ccc(S(N)(=O)=O)cc32)c2ccccc21
residual activity [%]: 101

====

MEASUREMENT TARGET: Calcium/calmodulin-dependent protein kinase type 1 (Homo sapiens) (UniProt Q14012)
Sequence (Q14012 whole entry, looked up): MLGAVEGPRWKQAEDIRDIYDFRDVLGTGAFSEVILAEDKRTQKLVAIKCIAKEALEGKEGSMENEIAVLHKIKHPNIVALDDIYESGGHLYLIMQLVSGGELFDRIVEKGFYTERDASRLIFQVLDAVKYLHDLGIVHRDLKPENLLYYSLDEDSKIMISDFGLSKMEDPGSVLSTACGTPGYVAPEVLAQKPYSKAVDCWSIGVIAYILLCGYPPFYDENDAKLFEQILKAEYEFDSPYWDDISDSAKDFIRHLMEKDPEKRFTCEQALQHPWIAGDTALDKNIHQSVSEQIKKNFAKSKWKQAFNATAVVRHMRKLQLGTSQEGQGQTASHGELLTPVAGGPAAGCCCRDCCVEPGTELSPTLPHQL
APPLIED CONDITIONS: at 1 µM
Here the recorded residual activity is given for each entry.
METRIC NAME: residual activity (%)

GIVEN SMILES: CC(=O)O/N=C1\C(=C2\C(=O)Nc3cc(Br)ccc32)Nc2ccccc21
METRIC NAME: residual activity
UNIT NAME: %
OBSERVED MEASUREMENT: 82
--
GIVEN SMILES: O=C1NC(=O)c2cc(Nc3ccc(F)cc3)c(Nc3ccc(F)cc3)cc21
METRIC NAME: residual activity
UNIT NAME: %
OBSERVED MEASUREMENT: 109
--
GIVEN SMILES: O=Nc1c(-c2c(O)[nH]c3ccccc23)[nH]c2ccccc12
METRIC NAME: residual activity
UNIT NAME: %
OBSERVED MEASUREMENT: 72
--
GIVEN SMILES: O=C1NC(=O)c2c1c1c3ccccc3[nH]c1c1[nH]c3cc(Br)ccc3c21
METRIC NAME: residual activity
UNIT NAME: %
OBSERVED MEASUREMENT: 89
--
GIVEN SMILES: O=C1NC(=O)/C(=C/c2ccc3c(c2)OC(F)(F)O3)S1
METRIC NAME: residual activity
UNIT NAME: %
OBSERVED MEASUREMENT: 86
--
GIVEN SMILES: c1ccc(-c2n[nH]c3c2oc2ccccc23)cc1
METRIC NAME: residual activity
UNIT NAME: %
OBSERVED MEASUREMENT: 115
--
GIVEN SMILES: Cc1nc(-c2ccccc2)c(-c2ccncc2)o1
METRIC NAME: residual activity
UNIT NAME: %
OBSERVED MEASUREMENT: 104
--
GIVEN SMILES: Cn1cc(/C=C2\C(=O)Nc3ccc(S(N)(=O)=O)cc32)c2ccccc21
METRIC NAME: residual activity
UNIT NAME: %
OBSERVED MEASUREMENT: 54
--
GIVEN SMILES: COc1cc2ncnc(Nc3ccc(NC(=O)c4ccccc4)cc3)c2cc1OC
METRIC NAME: residual activity
UNIT NAME: %
OBSERVED MEASUREMENT: 99
--
GIVEN SMILES: CNc1cc2c(Nc3cccc(Br)c3)ncnc2cn1
METRIC NAME: residual activity
UNIT NAME: %
OBSERVED MEASUREMENT: 95
--
GIVEN SMILES: Cn1cnc2cc3c(Nc4cccc(Br)c4)ncnc3cc21
METRIC NAME: residual activity
UNIT NAME: %
OBSERVED MEASUREMENT: 103
--
GIVEN SMILES: Cc1ccc(NC2=CC(=O)c3sc(C)nc3C2=O)cc1
METRIC NAME: residual activity
UNIT NAME: %
OBSERVED MEASUREMENT: 92
--
GIVEN SMILES: Cn1nc2c3c(cccc31)C(=O)c1ccccc1-2
METRIC NAME: residual activity
UNIT NAME: %
OBSERVED MEASUREMENT: 75
--
GIVEN SMILES: CC#CC(=O)Nc1cc2c(Nc3ccc(F)c(Cl)c3)ncnc2cn1
METRIC NAME: residual activity
UNIT NAME: %
OBSERVED MEASUREMENT: 98
--
GIVEN SMILES: Oc1c2ccccc2c2c3c(cccc13)N=N2
METRIC NAME: residual activity
UNIT NAME: %
OBSERVED MEASUREMENT: 77
--
GIVEN SMILES: CO[C@H]1[C@@H](OC)C[C@H](C)[C@@H](OC)C2=CC(=O)C=C(NC(=O)/C(C)=C/C=C/[C@H](OC)[C@@H](OC(N)=O)/C(C)=C/[C@@H]1C)C2=O
METRIC NAME: residual activity
UNIT NAME: %
OBSERVED MEASUREMENT: 115
--
GIVEN SMILES: Oc1ccc(Nc2nc(-c3ccc(Cl)cc3)cs2)cc1
METRIC NAME: residual activity
UNIT NAME: %
OBSERVED MEASUREMENT: 94
--
GIVEN SMILES: COc1cc2ncnc(Nc3ccc(O)c(Br)c3)c2cc1OC
METRIC NAME: residual activity
UNIT NAME: %
OBSERVED MEASUREMENT: 104
--
GIVEN SMILES: O=C1Nc2ccc(Br)cc2/C1=C\c1cc2c([nH]1)CCCC2
METRIC NAME: residual activity
UNIT NAME: %
OBSERVED MEASUREMENT: 105
--
GIVEN SMILES: CC(C)n1cnc2c(NCc3ccccc3)nc(NCCCO)nc21
METRIC NAME: residual activity
UNIT NAME: %
OBSERVED MEASUREMENT: 80
--
GIVEN SMILES: O=c1c2ccccc2[nH]c(=S)n1CCN1CCC(=C(c2ccc(F)cc2)c2ccc(F)cc2)CC1
METRIC NAME: residual activity
UNIT NAME: %
OBSERVED MEASUREMENT: 110
--
GIVEN SMILES: Nc1n[nH]c2nnc(-c3c(-c4ccccc4)nn4ccccc34)cc12
METRIC NAME: residual activity
UNIT NAME: %
OBSERVED MEASUREMENT: 101

====

MEASUREMENT TARGET: Tyrosine-protein kinase HCK (Homo sapiens)
APPLIED CONDITIONS: at 10 µM
Here the recorded residual activity is given for each entry.

GIVEN SMILES: COc1ccc(S(=O)(=O)N(CCO)c2ccccc2CN(C)C/C=C/c2ccc(Cl)cc2)cc1
MEASUREMENT TARGET: Tyrosine-protein kinase HCK (Homo sapiens)
residual activity / %: 90
//
GIVEN SMILES: c1ccc(-c2n[nH]c3c2oc2ccccc23)cc1
MEASUREMENT TARGET: Tyrosine-protein kinase HCK (Homo sapiens)
residual activity / %: 81
//
GIVEN SMILES: Cc1ccc(NC2=CC(=O)c3sc(C)nc3C2=O)cc1
MEASUREMENT TARGET: Tyrosine-protein kinase HCK (Homo sapiens)
residual activity / %: 99
//
GIVEN SMILES: O=C(Nc1cccc(Nc2cc(Nc3cccc(C(F)(F)F)c3)ncn2)c1)C1CC1
MEASUREMENT TARGET: Tyrosine-protein kinase HCK (Homo sapiens)
residual activity / %: 83
//
GIVEN SMILES: CC(=O)c1ccc(N2CCOCC2)cc1O
MEASUREMENT TARGET: Tyrosine-protein kinase HCK (Homo sapiens)
residual activity / %: 107
//
GIVEN SMILES: Oc1n[nH]c2nnc(-c3c(-c4ccccc4)nn4ccccc34)cc12
MEASUREMENT TARGET: Tyrosine-protein kinase HCK (Homo sapiens)
residual activity / %: 80

====

MEASUREMENT TARGET: Fibroblast growth factor receptor 4 (Homo sapiens)
APPLIED CONDITIONS: at 10 µM
Here the recorded residual activity is given for each entry.

GIVEN SMILES: N#Cc1cnc2cnc(NCc3cccnc3)cc2c1Nc1ccc(F)c(Cl)c1
residual activity (%): 92
--
GIVEN SMILES: Nc1nc(Nc2ccc(S(N)(=O)=O)cc2)nn1C(=S)Nc1c(F)cccc1F
residual activity (%): 23
--
GIVEN SMILES: O=C1NC(=O)c2cc(Nc3ccc(F)cc3)c(Nc3ccc(F)cc3)cc21
residual activity (%): 93
--
GIVEN SMILES: O=C1NC(=O)/C(=C/c2ccc3c(c2)OC(F)(F)O3)S1
residual activity (%): 94
--
GIVEN SMILES: CO[C@H]1[C@@H](OC)C[C@H](C)[C@@H](OC)C2=CC(=O)C=C(NC(=O)/C(C)=C/C=C/[C@H](OC)[C@@H](OC(N)=O)/C(C)=C/[C@@H]1C)C2=O
residual activity (%): 94
--
GIVEN SMILES: O=C1c2ccccc2-[n+]2ccc3c([nH]c4ccccc43)c21
residual activity (%): 97
--
GIVEN SMILES: COc1cc2ncnc(N3CCN(C(=O)Nc4ccc(Oc5ccccc5)cc4)CC3)c2cc1OC
residual activity (%): 105
--
GIVEN SMILES: Cn1nc2c3c(cccc31)C(=O)c1ccccc1-2
residual activity (%): 88
--
GIVEN SMILES: COc1ccc(OC)c2c(=S)c3ccccc3[nH]c12
residual activity (%): 88
--
GIVEN SMILES: COc1ccc(C(=O)Nc2sc3c(c2C(N)=O)CCCC3)cc1OC
residual activity (%): 99
--
GIVEN SMILES: CC(C)n1cnc2/c(=N/c3cccc(Cl)c3)nc(NCCO)[nH]c21
residual activity (%): 110
--
GIVEN SMILES: CCC(=O)Nc1ccc2ncnc(Nc3cccc(Br)c3)c2c1
residual activity (%): 100
--
GIVEN SMILES: Cn1cc(/C=C2\C(=O)Nc3ccc(S(N)(=O)=O)cc32)c2ccccc21
residual activity (%): 69
--
GIVEN SMILES: O=c1cc(-c2cccc3c2Sc2ccccc2S3)oc(N2CCOCC2)c1
residual activity (%): 88
--
GIVEN SMILES: Oc1ccc(Nc2nc(-c3ccc(Cl)cc3)cs2)cc1
residual activity (%): 118
--
GIVEN SMILES: CC[n+]1c(/C=C/N(C)c2ccccc2)n(-c2ccccc2)c2ccc(-c3nc4ccccc4s3)cc21
residual activity (%): 84
--
GIVEN SMILES: Cc1cc2ncc(-c3ccccc3)nc2cc1C
residual activity (%): 93
--
GIVEN SMILES: CCN(CC)CCCCN1c2ccccc2Oc2ccc(Cl)cc21
residual activity (%): 90
--
GIVEN SMILES: O=C1NC(=O)c2c1c1c3ccccc3[nH]c1c1[nH]c3cc(Br)ccc3c21
residual activity (%): 90
--
GIVEN SMILES: O=C(Nc1cccc(Nc2cc(Nc3cccc(C(F)(F)F)c3)ncn2)c1)C1CC1
residual activity (%): 90
--
GIVEN SMILES: CO[C@@H]1[C@H](N(C)C(=O)c2ccccc2)C[C@H]2O[C@]1(C)n1c3ccccc3c3c4c(c5c6ccccc6n2c5c31)C(=O)NC4
residual activity (%): 41
--
GIVEN SMILES: Cc1ccc(NC2=CC(=O)c3sc(C)nc3C2=O)cc1
residual activity (%): 90
--
GIVEN SMILES: CC(C)n1cnc2c(NCc3ccccc3)nc(NCCCO)nc21
residual activity (%): 81
--
GIVEN SMILES: O=[N+]([O-])c1ccc(-c2nc(-c3ccc(F)cc3)c(-c3ccncc3)[nH]2)cc1
residual activity (%): 92
--
GIVEN SMILES: COc1ccc(CNc2nc(N(CCO)CCO)nc3c2ncn3C(C)C)cc1
residual activity (%): 104
--
GIVEN SMILES: CN(C)CCCn1cc(C2=C(c3c[nH]c4ccccc34)C(=O)NC2=O)c2ccccc21
residual activity (%): 70
--
GIVEN SMILES: Cc1ccc(S(=O)(=O)/C=C/C#N)cc1
residual activity (%): 106
--
GIVEN SMILES: Cn1cnc2cc3c(Nc4cccc(Br)c4)ncnc3cc21
residual activity (%): 96
--
GIVEN SMILES: Cc1cc(Nc2nc(-c3ccccc3)nc3ccccc23)n[nH]1
residual activity (%): 72
--
GIVEN SMILES: Oc1ccc(-c2nc(-c3ccc(F)cc3)c(-c3ccncc3)[nH]2)cc1
residual activity (%): 96
--
GIVEN SMILES: O=C1Nc2cc(Br)ccc2/C1=C1/Nc2ccccc2/C1=N\O
residual activity (%): 35
--
GIVEN SMILES: Cc1nc2cc3nc(-c4cccs4)cnc3cc2n1C
residual activity (%): 95
--
GIVEN SMILES: COc1ccc(S(=O)(=O)N(CCO)c2ccccc2CN(C)C/C=C/c2ccc(Cl)cc2)cc1
residual activity (%): 92
--
GIVEN SMILES: CCOc1cc2ncnc(Nc3cccc(Br)c3)c2cc1OCC
residual activity (%): 92
--
GIVEN SMILES: CC(=O)O/N=C1\C(=C2\C(=O)Nc3cc(Br)ccc32)Nc2ccccc21
residual activity (%): 69
--
GIVEN SMILES: O=c1c2ccccc2[nH]c(=S)n1CCN1CCC(=C(c2ccc(F)cc2)c2ccc(F)cc2)CC1
residual activity (%): 81
--
GIVEN SMILES: Cc1nc(-c2ccccc2)c(-c2ccncc2)o1
residual activity (%): 99
--
GIVEN SMILES: COc1cccc(-c2cc(=O)c3ccccc3o2)c1N
residual activity (%): 98
--
GIVEN SMILES: C[C@@H](N)[C@H]1CC[C@H](C(=O)Nc2ccncc2)CC1
residual activity (%): 103
--
GIVEN SMILES: N#C/C(=C(\N)Sc1ccc(N)cc1)c1ccccc1C(F)(F)F
residual activity (%): 90
